# subject of test: SMYD3 (Homo sapiens (Human), UniProt Q9H7B4)
# test protocol: SMYD3 biochemical assay (SPA, 3H-SAM methylation of MEKK2 protein substrate)
# details: read-out: SMYD3 Biochem IC50 (μM)*
In this section we review reported IC50 values for a set of compounds.

compound: NCCS(=O)(=O)N1[C@@H]2CC[C@H]1C[C@@H](NC(=O)c1cc(C3CC3)on1)C2
value relation sign: =
IC50 (µM): 0.0417
//
compound: C[C@H](N)C(=O)NC[C@@H](Cc1ccc(O)c(I)c1)C(=O)N1CCC(NC(=O)c2cc(C3CC3)on2)CC1
value relation sign: =
IC50 (µM): 15.3
//
compound: COC(=O)CCS(=O)(=O)N1CC[C@@H](NC(=O)c2cc(C3CC3)on2)C[C@H]1C
value relation sign: >
IC50 (µM): 10
//
compound: O=C(N[C@@H]1CCN(S(=O)(=O)CCN2CCCC2)[C@H](Cc2ccccc2)C1)c1cc(C2CC2)on1
value relation sign: =
IC50 (µM): 3.81
//
compound: CCCS(=O)(=O)N1CC[C@@H](NC(=O)c2cc(C3CC3)on2)C[C@H]1C
value relation sign: >
IC50 (µM): 10
//
compound: N[C@H]1CC[C@H](C(=O)N2CC[C@H](NC(=O)c3cc(C4CC4)on3)C[C@@H]2Cc2ccccc2)CC1
value relation sign: =
IC50 (µM): 0.733
//
compound: C[C@H]1C[C@H](NC(=O)c2cc(C3CC3)on2)CCN1C(=O)[C@H]1CC[C@H](N)CC1
value relation sign: =
IC50 (µM): 1.41
//
compound: O=C(NC1CC2CCCC(C1)N2S(=O)(=O)c1ccccc1)c1cc(C2CC2)on1 (stereo not drawn)
value relation sign: =
IC50 (µM): 0.793
//
compound: C[C@@H]1C[C@@H](NC(=O)c2cc(C3CC3)on2)CCN1S(=O)(=O)C1CC1
value relation sign: >
IC50 (µM): 10
//
compound: CCCCS(=O)(=O)N1CC[C@@H](NC(=O)c2cc(C3CC3)on2)C[C@H]1C
value relation sign: =
IC50 (µM): 6.15
//
compound: CCS(=O)(=O)N1CC[C@H](NC(=O)c2cc(C3CC3)on2)C[C@@H]1C
value relation sign: =
IC50 (µM): 2.45
//
compound: C[C@@H]1C[C@H](NC(=O)c2cc(C3CC3)on2)CCN1C(=O)CCCN
value relation sign: =
IC50 (µM): 3.11
